Data origin, for the record: PubChem BioAssay (NCI)

Tested on: NCI-H522 lung
Assay: NCI-60 one-dose screen, 48 h (100 = growth as untreated, 0 = no growth, -100 = all killed)
Settings: 10 µM unless noted
The panel holds about 83,000 compounds, 20% with a hit somewhere; the sample as a whole holds those more often. Activity calls are given as the source filed them. Rule for the calls: active = growth percent below 10; inactive = the rest.
Endpoint: growth

1. COc1ccc(Cn2cc3c(c2-c2cc(OC)c(OC)c(OC)c2)CCCc2cnoc2-3)cc1    10.4% (inactive)
2. CCCC(=O)NC(c1cccnc1)c1cc(C(C)=O)c2cccnc2c1O (centres undefined)    18.6% (inactive)
3. O=C1[C@H]2Cc3c([nH]c4ccccc34)[C@@H](c3ccc(Cl)cc3)N2C(=O)CN1C1CCN(Cc2c(Cl)cccc2Cl)CC1    74.6% (inactive)

I would be grateful if you could provide growth for each of the following entries.
1. Nc1ccc(-c2nnc(SCc3ccc(O)c4ncccc34)o2)cc1
2. CC(=O)NC(C)(C)C(=O)N1CCC[C@H]1C(=O)NC(C)(C)C(=O)N[C@@H](C)C(=O)NC(C)(C)C(=O)NC(C)(C)C(=O)N[C@@H](CCC(N)=O)C(=O)NC(C)(C)C(=O)N[C@H](C(=O)NC(C)(C)C(=O)NCC(=O)N[C@@H](CC(C)C)C(=O)NC(C)(C)C(=O)N1CCC[C@H]1C(=O)N[C@H](C(=O)NC(C)(C)C(=O)NC(C)(C)C(=O)N[C@@H](CCC(N)=O)C(=O)N[C@@H](CCC(N)=O)C(=O)N[C@H](CO)Cc1ccccc1)C(C)C)C(C)C
3. COc1cc(/C=N/n2cnc3oc(-c4ccccc4)cc3c2=N)cc(CN2CCOCC2)c1O
4. O=c1c2c(O)cccc2oc2c3c(cc(O)c12)O[C@H]1OC=C[C@@H]31
5. CN1C(=O)N(C)C2Nn3c(s/c(=C\c4ccccn4)c3=O)=NC21 (centres undefined)
6. C=CCn1c(SCC(=O)Nc2cccc(C(=O)/C=C/c3ccccc3)c2)nc2ccccc2c1=O

["-2.05% (active)", "10.6% [4.25 µM] (inactive)", "61.1% (inactive)", "79.9% (inactive)", "92.3% (inactive)", "86.2% (inactive)"]

----------
Test system: OVCAR-5 ovarian
Assay: NCI-60 one-dose screen, 48 h (100 = growth as untreated, 0 = no growth, -100 = all killed)
Conditions: 10 µM unless noted
Compounds without any hit were thinned out: in the full panel of roughly 83,000, 20% have a hit.
Endpoint: growth (%)
Give bare numbers, in %.

Examples with answers:
1) C/C(=C(/c1ccc(O)cc1)c1ccc(OCCN2CCCC2)cc1)c1ccc(Cl)cc1    60.1
2) O=C(NCCCCCCNC(=O)c1c2c(nc3ccccc13)-c1cccnc1SC2)c1c2c(nc3ccccc13)-c1cccnc1SC2    57.9

// for each compound in input: emit growth
1. CS(=O)c1nccc(-c2c(-c3ccc(F)c(OCc4ccccc4)c3)nc3sccn23)n1 (centres undefined)
2. C=C1C(=O)O[C@@H]2/C=C(/C)C3=CC(=O)[C@@](C)(C[C@H](OC(=O)/C(C)=C\C)[C@@H]12)O3

1: 104; 2: 4.42

----------
Tested on: KM12 colon
Test: NCI-60 one-dose screen, 48 h
Conditions: 10 µM unless noted
This is part of a sample that, as a whole, favours compounds with a hit. Of some 83,000 tested, about 20% had one in any assay. The source made the active and inactive calls. How the source made its calls: active means growth percent below 10; inactive means the rest.
Hi! Could you answer with just one of these? T (active), F (inactive)

1. C=C1C(=O)O[C@@H]2C[C@@H](C)/C=C\C(=O)[C@](C)(OC(C)=O)C[C@H](OC(=O)/C(C)=C\C)[C@@H]12    F
2. O=C(Nc1ccc(Cl)cc1)Nc1nc2ccc([N+](=O)[O-])cc2s1    T
3. O=C1c2c(c3c4cc(Br)ccc4[nH]c3c3ccc4ccccc4c23)C(=O)N1CCN1CCNCC1    F

Turning to the following compound.
Tell me the recorded outcome of this test for COc1cnc2c(c1)C(=O)c1c-2n(CCCNCC2CC2)c(=O)c2cc(F)ccc12 .
T

----------
Tested on: MALME-3M melanoma
Assay: NCI-60 one-dose screen, 48 h (100 = growth as untreated, 0 = no growth, -100 = all killed)
Conditions: 10 µM unless noted
About 83,000 compounds went through this panel and 20% of them were active in at least one assay; those are over-represented in the sample as a whole.
Endpoint: growth (%)
One number for each entry, in %.

See these solved cases before continuing.
1) C#CCOc1ccc(C(Nc2ccc(OC)cc2)c2nnnn2C2CCCCC2)cc1 (stereo not drawn)    98.5
2) COc1cc2c3c(n(CCCNC4CCC4)c(=O)c2cc1OC)-c1cc2c(cc1C3=O)OCO2    -46.2
3) CCOC(=O)/C=c1\sc2n(c1=O)C1C(NN=2)N(CC)C(=O)N1CC (stereo not drawn)    49.1
4) CC(C)Sc1nc(NC2CC2)c(C#N)c(-c2ccccc2)n1    57.1
5) CS(=O)(=O)c1ccc(-c2nn(-c3ccccc3)cc2/C=C/C(=O)c2ccc(Br)cc2)cc1    71.3

Provide each entry's growth from the list below.
1. CCOC(=O)c1c(NCC(=O)Nc2cccc(Cl)c2)sc2c1CCCC2
2. NC(=O)N1N=C(c2cc3ccccc3oc2=O)CC1c1cn(-c2ccccc2)nc1-c1ccc(Cl)cc1 (stereo not drawn)
3. CSc1nccc(-c2c(-c3ccc(F)c(OCc4ccc(F)cc4)c3)nc3sccn23)n1
4. CC1(C)CC[C@]2(C(=O)N3CCCN(CC#N)CC3)CC[C@]3(C)C(=CC[C@@H]4[C@@]5(C)CC[C@H](O)C(C)(C)[C@@H]5CC[C@]43C)[C@H]2C1
5. C=C(C)C(=O)O[C@H]1C[C@@]2(C)OC(=CC2=O)/C(CO)=C\[C@H]2OC(=O)C(=C)[C@H]12
6. COc1ccc(Oc2ccc(C3CC(c4cc(OC)c(OC)c(OC)c4)=NN3C(C)=O)cc2)cc1 (stereo not drawn)

1: 82.8; 2: 69.6; 3: 104; 4: 77.8; 5: -68.8; 6: 33.6

Give measured growth for every item shown.
1. C/C(=C(/C)C1CC1CCN(C(=O)c1ccc([N+](=O)[O-])cc1)S(=O)(=O)c1ccc(C)cc1)C1CCCCC1 (stereo not drawn)
2. COc1ccc(NS(=O)(=O)c2ccc(-c3cnc(C4CC4)o3)cc2)cc1Cl
3. NS(=O)(=O)Oc1ccc2nc(Nc3ccc(F)c(F)c3)ccc2c1
4. Cc1ccc(NC(=O)c2cc(/C=C/C(=O)NO)cc(C(F)(F)F)c2)cc1Nc1nccc(-c2cccnc2)n1

1: 98.3; 2: 50; 3: 102; 4: -19.2

----------
Test system: HOP-92 NSCLC
Assay: NCI-60 one-dose screen, 48 h (100 = growth as untreated, 0 = no growth, -100 = all killed)
Conditions: 10 µM unless noted
About 83,000 compounds went through this panel and 20% of them were active in at least one assay; those are over-represented in the sample as a whole.
Endpoint: growth (%)
Give bare numbers, in %.

1. O=C1NC(=O)/C(=C/c2ccc(OCc3cc4ccccc4nc3Cl)cc2)S1    78.6

Working through the 7 molecules below one at a time, give growth for each.
1. CCn1c2ccc(/C=N/NS(=O)(=O)CCN(C)C)cc2c2cc(/C=N/NS(=O)(=O)CCN(C)C)ccc21
2. COc1ccc([C@H]2[C@H](O)C(=O)N2c2cc(OC)c(OC)c(OC)c2)cc1
3. c1ccc(-c2c(-c3ccccc3)[n+](Cc3ccc4ccccc4c3)c(-c3ccccc3)n2Cc2ccc3ccccc3c2)cc1
4. CS(=O)(=O)c1ccc2c(c1)c1c(n2Cc2ccc(Cl)cc2)CCCC1
5. C#CCOc1ccc(C(Nc2ccc(OC)cc2)c2nnnn2C2CCCCC2)cc1 (centres undefined)
6. O=C(NNc1nc2cc(F)c(F)cc2n2cccc12)c1ncccn1
7. CN1CCN(c2ccc(NC(=O)Nc3ccc4c(ccn4-c4cccc(C(N)=O)n4)c3)cc2C(F)(F)F)CC1

1: 92.2; 2: -4.93; 3: -89.8; 4: 65.7; 5: 93.9; 6: 68.1; 7: 119

Param item = CCOc1ccc2nc(NC(=O)Nc3ccccc3C)sc2c1 ; retrieve measured growth.
126

----------
Test system: CCRF-CEM leukemia
Experiment: NCI-60 one-dose screen, 48 h
Conditions: 10 µM unless noted
Compounds without any hit were thinned out: in the full panel of roughly 83,000, 20% have a hit. The source made the active and inactive calls. The calls were made as follows: active = growth percent below 10; inactive = the rest.
Field 'call' accepts active, inactive

Examples from the recorded data:
1. C#Cc1ccc(NC(=O)c2ccc(/C=C/C(=O)c3nccn3C)cc2)c(F)c1    active
2. C=C(C)C(=O)O[C@H]1C[C@@]2(C)OC(=CC2=O)/C(CO)=C\[C@H]2OC(=O)C(=C)[C@H]12    active
3. Cc1ccc(C2CC(c3ccc(Nc4nc(NCCO)nc(Nc5ccc(Cl)cc5)n4)cc3)=Nc3c(N)nc(N)nc3N2)cc1 (centres undefined)    active
4. Brc1cccc(/C=N/Nc2nc(N/N=C/c3cccc(Br)c3)nc(N3CCOCC3)n2)c1    inactive
5. CN1CCN(c2nc(-c3csc(-c4ccncc4)n3)cc3ccccc23)CC1    inactive
6. CCOC(=O)c1nn(-c2ccccc2)c(=O)c2c(N)c(C#N)c(-c3cccs3)cc12    inactive
7. O=C(/C=C/Nc1ccc(S(=O)(=O)O)cc1)c1ccc(F)cc1    inactive
8. CC(=O)c1sc(Nc2cccc(Nc3nc(C)c(C)s3)c2)nc1C    inactive
9. Cc1cn(-c2cc(NC(=O)c3cncc(C#Cc4cnc5ccc(O[C@@H]6CCOC6)nn45)c3)cc(C(F)(F)F)c2)cn1    active
10. CCCC(=O)NC(c1cccnc1)c1ccc2c(C)ccnc2c1O (centres undefined)    active

Could you check what this test reported for CC(=O)Nc1nc2c(s1)C1=CC[C@H]3[C@@H]4CC[C@H](C(C)=O)[C@@]4(C)CC[C@@H]3[C@@]1(C)CC2 ?
inactive

Called result for C/C=C/C=C1\C[C@H]2CO[C@H](O2)C1=O
inactive

Identify the outcome logged in this assay for the molecule shown: C[C@@H]1C[C@H]2C(=O)OCC(NC(=O)[C@H](Cc3cc(F)cc(F)c3)NC(=O)Nc3ccc(Cl)cc3F)C(=O)N3CCC[C@H]3C(=O)N3CCCC[C@H]3C(=O)N[C@@H](C)C(=O)N2C1 (some centres undefined)
inactive

Hi team, can someone confirm the assay call for COc1ccc([C@H]2c3[nH]c4ccccc4c3C[C@@H]3C(=O)N(C4CCN(Cc5ccccc5)CC4)CC(=O)N23)c(OC)c1 ?
inactive

Per the records of this test, what outcome belongs to COc1ccc(S(=O)(=O)n2cc(C=O)c3ccccc32)c(OC)c1 ?
inactive
